B1: Dystrobrevin alpha, residues 235 to 294; numbered along this chain, Q9Y4J8 (parent)
chain: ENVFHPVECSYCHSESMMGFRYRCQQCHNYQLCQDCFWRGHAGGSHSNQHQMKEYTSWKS

- Variants of: B1
- EXPERIMENT: abundance fitness (aPCA) (normalised: wild type 0, dead -1); higher = more abundant; growth selection in yeast, the domain comes from the species named
- CONDITION CONTEXT: Homo sapiens
So basically, the class depends on measured abundance fitness, and the ranges are low band = under -0.2, middle band = from -0.2 up to 0.01, high band = 0.01 and over

Q. Please indicate the class for S45P based on its abundance fitness.
A. middle band

Q. Tag the class for C12E
A. low band

Q. Bin? L32E
A. low band

Q. Which category fits this record: H5P
A. middle band

Q. Form: Item = S16Y ; Class = ?
A. low band

Q. Note: place this variant into its band. Item: S60R
A. high band

Q. Which band does C33A fall in?
A. low band

Q. Determine which band this variant sits in: Q31W
A. high band

Q. Field: class (abundance fitness) — entry: C27D
A. low band

Q. // return the class label for N48V
A. high band

Q. Please report the category associated with Y11F , nothing else.
A. high band

Q. Quick check: band for F20P
A. high band

Q. Using the reported abundance fitness, which band applies to C33W ?
A. low band

Q. Textbook exercise: identify the category of the variant given here, M18R , according to its measured value.
A. high band

Q. In plain terms, what class is H50M ?
A. low band

Q. Please classify: C33V
A. low band

Q. Which category does the recorded abundance fitness put F37S in?
A. low band

Q. Class? Entry: G40V
A. low band

Q. Hi there! Could you help me figure out the category for R23L please?
A. middle band

Q. GET /class?item= L32G
A. low band

Q. Note: place this variant into its band. Item: H50L
A. low band

Q. Each variant maps to one class by abundance fitness. Which class for M17Y ?
A. middle band

Q. # bin label for D35G
A. low band

Q. Classify this variant: Q51K
A. high band

Q. Hey, which category is F4R in, do you know?
A. middle band

Q. Category of G40F :
A. middle band

Q. Classify this variant: W38Q
A. high band

Q. # bin lookup: classify M17D by its abundance fitness
A. high band

Q. Would you mind sorting F4V into the appropriate category?
A. middle band

Q. Sort S60V into one of the categories.
A. high band

Q. Which band does S60A fall in?
A. low band

Q. Quick check: band for N48T
A. middle band

Q. # classify by abundance fitness band: Q26E
A. middle band

Q. Band assignment needed for V7E please.
A. high band

Q. Lab note: which band did S16K land in?
A. middle band

Q. Note: place this variant into its band. Item: Q51V
A. middle band

Q. Given S60H , name the class its abundance fitness places it in.
A. high band

Q. Exam item: assign P6F to the correct category.
A. middle band

Q. Note: place this variant into its band. Item: K53Y
A. low band

Q. Band for the recorded abundance fitness of E1Y ?
A. high band

Q. Entry F37N belongs to which category?
A. low band

Q. Band for the recorded abundance fitness of G19F ?
A. low band

Q. Kindly state the category for this variant: W58L
A. high band

Q. Tag the class for G19N
A. middle band

Q. Record K59Q — which class?
A. high band

Q. Classify this variant: S14H
A. middle band

Q. Where would E15Q land among the classes by reported abundance fitness?
A. high band

Q. Categorize the following entry: M52Y
A. middle band

Q. Note: place this variant into its band. Item: V3E
A. high band

Q. Lab note: sort H13Y into the matching abundance fitness band.
A. middle band

Q. Tag the class for W38K
A. high band

Q. Which of the defined bands does the recorded abundance fitness of R21C sit within?
A. middle band

Q. Please report the category associated with S45D , nothing else.
A. high band

Q. Textbook exercise: identify the category of the variant given here, Y55V , according to its measured value.
A. high band

Q. GET /class?item= M18D
A. high band

Q. Just checking, what class would you give H28P here?
A. high band

Q. Field: class (abundance fitness) — entry: Y11V
A. middle band

Q. Bin this entry: W58R
A. high band

Q. Classify this variant: Q25D
A. middle band

Q. Could you place Y22E in its proper category? Many thanks.
A. low band

Q. Lab note: which band did E8S land in?
A. middle band

Q. Exam item: assign H41R to the correct category.
A. high band

Q. Hi there! Could you help me figure out the category for K59A please?
A. high band

Q. Hi, small favor: classify E15K by its abundance fitness when you get a moment.
A. middle band

Q. Category of P6I , please.
A. middle band

Q. Which category fits this record: E15W
A. middle band

Q. Just checking, what class would you give F4W here?
A. low band

Q. Lab note: sort Q49D into the matching abundance fitness band.
A. high band

Q. Place this variant in its band: N48P
A. high band

Q. State the band of F37L
A. low band

Q. Just checking, what class would you give Q49F here?
A. middle band

Q. Which abundance fitness category applies to V3A here?
A. middle band

Q. Each variant maps to one class by abundance fitness. Which class for Y55N ?
A. middle band

Q. Which category does the recorded abundance fitness put S14G in?
A. middle band

Q. State the class of the variant shown: Q25T
A. middle band

Q. Class label required: Q34A
A. middle band

Q. Classify this variant: S47D
A. high band

Q. Lab note: sort M18L into the matching abundance fitness band.
A. high band

Q. Which abundance fitness category applies to M17F here?
A. middle band

Q. Record Y30K — which class?
A. low band

Q. Where would W38P land among the classes by reported abundance fitness?
A. middle band

Q. Which band does T56S fall in?
A. high band

Q. In plain terms, what class is G40N ?
A. middle band

Q. Could you tell me which band R21D belongs to?
A. low band

Q. Please classify: H41L
A. middle band

Q. Dear colleague, I would appreciate it if you could identify the bin for C27N and reply at your convenience.
A. low band

Q. Hello team, could you let me know which band the following variant falls into: M18E
A. high band

Q. # bin lookup: classify S14W by its abundance fitness
A. low band

Q. Hi there! Could you help me figure out the category for V3G please?
A. low band

Q. Hey, which category is Y30R in, do you know?
A. low band

Values from the Human Domainome abundance scans (Beltran et al. 2025)
